PROTOCOL_TEXT: qHTS Assay for NPC1 Promoter Activators; also: nearly all actives have a fitted effect of over 60% in size;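 as to activation: reporter is driven by a mutant NPC1 promoter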
ASSAY_CONDITIONS: Huh7 NPC1 promoter luciferase reporter, 24 h; series mostly up to 9.22 µM
Among all 320,000 compounds or so, about 7,600 (2.4%) were called active. About 3% were inconclusive and are not listed. Calls follow the shape of the dose curve; as a rule, active = well fitted activation curve with a large enough effect; inconclusive = small, poorly fitted or top-dose-only effect; inactive = no such curve, though single readings can be large or run the other way. The full list was thinned out, with actives kept by preference.
Respond only with the outcome that fits, drawn from active, inactive

Per the records of this test, what outcome belongs to `Nc1cccc(CCc2nc3ccccc3[nH]2)c1` ?
inactive

Per the records of this test, what outcome belongs to `O=C(Nc1cccc(S(=O)(=O)Nc2ccc(Cl)cc2)c1)c1ccc2c(c1)OCCO2` ?
inactive

Per the records of this test, what outcome belongs to `COc1cc(SC)ccc1C(=O)NCCOc1ccccc1Cl` ?
active

Per the records of this test, what outcome belongs to `Brc1ccc(-c2csc(N/N=C/c3ccc4c(c3)OCO4)n2)cc1` ?
inactive

Per the records of this test, what outcome belongs to `CC(=O)c1ccc(S(=O)(=O)N2CCN(C(=O)/C=C/c3ccc4ccccc4n3)CC2)cc1` ?
inactive

Per the records of this test, what outcome belongs to `O=C(Nc1cccc(S(=O)(=O)N2CCCCC2)c1)c1ccc2c(c1)OCO2` ?
inactive

Per the records of this test, what outcome belongs to CC1CCCCC12NC(=O)N(CC(=O)OCC(=O)NCc1ccc(F)cc1)C2=O (stereo unspecified) ?
inactive

Per the records of this test, what outcome belongs to `O=C(Nc1cccc(-c2nc3ncccc3o2)c1)c1ccco1` ?
inactive

Per the records of this test, what outcome belongs to `O=C(CN1CCc2cc3c(cc2C1)OCCCO3)Nc1ccccc1` ?
inactive

Per the records of this test, what outcome belongs to `CCn1c(=N)n(CC(=O)c2cccc(OC)c2)c2ccccc21` ?
active

Per the records of this test, what outcome belongs to CC(=O)NS(=O)(=O)c1ccc(NC(=O)C2C3C=CC(C3)C2C(=O)O)cc1 (stereo unspecified) ?
inactive

Per the records of this test, what outcome belongs to `Cc1ccc(NC(=O)c2csc3c2CCCC3)cc1` ?
active

Per the records of this test, what outcome belongs to `C(=N\Nc1ccc2ccccc2n1)/c1ccc2c(c1)OCO2` ?
active

Per the records of this test, what outcome belongs to `Cc1ccnc(NC(=O)CNC(=O)c2ccccc2)c1` ?
inactive

Per the records of this test, what outcome belongs to `O=C(Nc1ccccc1F)c1ccc2c(c1)OCO2` ?
active

Per the records of this test, what outcome belongs to `Cc1ccc(-c2nc3ccccc3[nH]2)cc1N` ?
active

Per the records of this test, what outcome belongs to `O=C(Nc1ccc2oc(-c3ccccc3F)nc2c1)c1ccco1` ?
active

Per the records of this test, what outcome belongs to `O=C(Nc1ccc2sc3ccccc3c(=O)c2c1)c1ccccc1Cl` ?
active

Per the records of this test, what outcome belongs to `O=C(Nc1ccccc1)Nc1nc2ccccc2s1` ?
active

Per the records of this test, what outcome belongs to `CN(CC(=O)Nc1ccc(Cl)cc1)C(=O)c1ccc(COc2ccccc2)cc1` ?
inactive

Per the records of this test, what outcome belongs to CCc1ccc(OCC(=O)OC(C)C(=O)NC2CC2)cc1 (stereo unspecified) ?
inactive

Per the records of this test, what outcome belongs to `O=C(Nc1ccc(Cl)cc1)Nc1nnc(/C=C/c2ccccc2)s1` ?
inactive

Per the records of this test, what outcome belongs to CC(C)COC(=O)c1ccc(NC(=O)C2C3C=CC(C3)C2C(=O)O)cc1 (stereo unspecified) ?
active

Per the records of this test, what outcome belongs to `COc1ccccc1N1CCN(/N=C/c2ccc(O)cc2O)CC1` ?
active

Per the records of this test, what outcome belongs to `COc1ccc(-c2[nH]nc(-c3ccccc3)c2-c2nc3ccccc3[nH]2)cc1` ?
inactive

Per the records of this test, what outcome belongs to `COc1cc(SC)ccc1C(=O)N(Cc1ccccc1)c1ccccc1` ?
inactive

Per the records of this test, what outcome belongs to `COc1cc(NC(=O)c2cccs2)ccc1NC(=O)c1ccccc1Cl` ?
inactive

Per the records of this test, what outcome belongs to `Cc1noc(C)c1/C=N/Nc1ccc2ccccc2n1` ?
active

Per the records of this test, what outcome belongs to `O=C(NCCCN1CCOCC1)c1cc(-c2cccc(O)c2)on1` ?
inactive

Per the records of this test, what outcome belongs to `Cc1ccc(Nc2nc(N)nc(CSc3nnc(C)s3)n2)cc1` ?
active

Per the records of this test, what outcome belongs to `O=C(Nc1ccc(Cl)cn1)c1ccc2c(c1)OCCO2` ?
active

Per the records of this test, what outcome belongs to `Cc1nc(Cl)cc(N/N=C/c2ccccc2)n1` ?
inactive

Per the records of this test, what outcome belongs to `CCOC(=O)N1CCN(Cc2nc(N)nc(Nc3ccc(C)cc3)n2)CC1` ?
inactive

Per the records of this test, what outcome belongs to `CN1CCN(c2ccc(NC(=O)c3cc(Cl)c4c(c3)OCCO4)cc2)CC1` ?
inactive

Per the records of this test, what outcome belongs to `O=C(NNC(=O)c1cccc(S(=O)(=O)Nc2ccc(Cl)cc2)c1)c1ccc(=O)[nH]c1` ?
inactive

Per the records of this test, what outcome belongs to `COc1ccc(Br)cc1C(=O)NC(=S)Nc1cc(-c2nc3ccccc3[nH]2)ccc1C` ?
inactive

Per the records of this test, what outcome belongs to `O=C(Nc1cccc(NC(=O)c2ccccc2[N+](=O)[O-])c1)c1ccccc1Cl` ?
inactive

Per the records of this test, what outcome belongs to `Cc1cccc(C)c1NC(=O)CNC(=O)c1ccc2c(c1)OCCO2` ?
inactive

Per the records of this test, what outcome belongs to `CCOc1ccccc1-c1cc(C(=O)N2CCOCC2)c2ccccc2n1` ?
inactive

Per the records of this test, what outcome belongs to `Clc1ccc(-c2ncc3ccccn23)c(Cl)c1` ?
inactive

Per the records of this test, what outcome belongs to `NC(=O)COC(=O)/C=C/c1ccc2ccccc2n1` ?
inactive

Per the records of this test, what outcome belongs to `CCCc1cc(C(=O)Nc2ccc(C(=O)OC)cc2)cs1` ?
inactive

Per the records of this test, what outcome belongs to OC(c1nc2ccccc2[nH]1)C(O)C(O)C(O)c1nc2ccccc2[nH]1 (stereo unspecified) ?
inactive

Per the records of this test, what outcome belongs to `CCOC(=O)C1CCN(S(=O)(=O)c2ccc3c(c2)N(C(C)=O)CCO3)CC1` ?
inactive

Per the records of this test, what outcome belongs to `CC(=O)c1ccc2c(c1)OCCOCCOc1ccc(C(C)=O)cc1OCCOCCO2` ?
inactive

Per the records of this test, what outcome belongs to `COc1cc(SC)ccc1C(=O)Nc1cc(C)ccn1` ?
active
